- Tested on: A498
- method_summary: NCI tumour cell line growth inhibition, 48 h
Activity calls are given as the source filed them. Rule as the data show it: active = GI50 up to about 1.1 µM and inactive = higher.
result_type: GI50

compound: CCOc1ccc2c(c1)[n+]([O-])c(S(=O)(=O)c1ccc(C)cc1)c(N)[n+]2[O-]
result_type: GI50
result: > 100 µM (inactive)
--
compound: Cc1cc(Br)c(N2C3=C(CC4=C2CCCC4=O)C(=O)CCC3)c(Br)c1
result_type: GI50
result: 94.8 µM (inactive)
--
compound: NCCSc1nc(N)c2ncn(C3OC(CO)C(O)C3O)c2n1 (stereo unspecified)
result_type: GI50
result: > 100 µM (inactive)
--
compound: COc1ccc(CCn2cnc3ccccc32)cc1
result_type: GI50
result: > 100 µM (inactive)
--
compound: O=C(NCCCc1cn[nH]c(=O)n1)c1cccc2nc3ccccc3nc12
result_type: GI50
result: > 100 µM (inactive)
--
compound: COc1ccc(-c2ccc(CC(=O)O)cc2)cc1OC
result_type: GI50
result: > 100 µM (inactive)
